FYI, the data here is from ChEMBL document CHEMBL1156829.

# EXPERIMENT_DESCRIPTION: NOVARTIS: Cytotoxicity against human hepatocellular carcinoma cell line (Huh7)
# Type: toxicity, cell-based, Huh-7
# CONDITION_SUMMARY: Huh7 cells (hepatocellular carcinoma cell line)
REPORTED_PROPERTY: CC50

Fc1ccc(N2CCN(c3ncnc4c3cnn4-c3ccccc3)CC2)cc1	> 100 µM
c1ccc(OCCOc2ccc(Nc3c4ccccc4nc4ccccc34)cc2)cc1	6.12 µM
Cc1cc(C)c2c(c1)OCN(Cc1ccccc1Cl)C2	> 100 µM
CCOC(=O)C1CCN(C(=O)CN2C(=O)c3ccccc3C2c2c[nH]c3ccccc23)CC1 (stereo unspecified)	> 100 µM
CCOc1ccc(NC(=O)C2c3ccccc3C(=O)N(CC(C)C)C2c2cccs2)cc1 (stereo unspecified)	> 100 µM

[in] If you can, please state the reported CC50 value of `C=C(C)[C@@H]1CC=C(CN2C[C@H](NC(=O)c3ccc(OC)cc3OC)C[C@H]2C(=O)OC)CC1` .
[out] > 10 µM

[in] Would you kindly share the measured CC50 for CCCCOC(=O)C1=C(C)NC2=C(C(=O)CCC2)C1c1ccc(Cl)c(Cl)c1 (stereo unspecified) ?
[out] > 100 µM

[in] // query CC50 value for entry `CC(=O)N(C1=C(N2CCOCC2)C(=O)c2ccccc2C1=O)c1ccc(F)c(F)c1`
[out] 3.48 µM

[in] Requested field: CC50. Item: `COC(=O)c1cn2c(=O)c3ccccc3nc2c2ccccc12`
[out] > 10 µM

[in] GET /values?readout=CC50&item= COC(=O)C1=C(C)NC2=C(C(=O)c3ccccc32)C1c1ccc(OCC#N)c(OC)c1 (stereo unspecified)
[out] 84.9 µM

[in] Quick check: CC50 of `N=c1c2c(n(Cc3ccc(Cl)c(Cl)c3)c3c1CCC3)CCCC2` ?
[out] > 10 µM

---

# Tested on: Plasmodium falciparum
# EXPERIMENT_DESCRIPTION: NOVARTIS: Inhibition of Plasmodium falciparum 3D7 (drug-susceptible) proliferation in erythrocyte-based infection assay
# Type: functional, organism-based
# CONDITION_SUMMARY: Plasmodium falciparum, 3D7
REPORTED_PROPERTY: log10(EC50) (log10 of the value in µM)
Please interpret these as log10 of EC50 where EC50 is in µM.

Below: 4 compounds and their reported log10(EC50).
COc1ccc(C2CC(=O)C3=C(C2)NC(C)=C(C(=O)OC(C)C)C3c2ccccc2Br)cc1 (stereo not given)	-1.21
CCOc1ccc2nc(C)cc(Nc3ccc(OCc4ccccc4Cl)cc3)c2c1	-0.85
CC(=O)Nc1ccc(-c2nc3c4ccccc4c4ccc(I)cc4c3[nH]2)cc1	-0.53
COc1ccc(NC(=O)Cn2c(C)c(C=O)c3ccccc32)cc1	0.16

Moving on to another compound below.
[in] What does the data say about its log10(EC50)? Entry: `O=C(Nc1ccon1)c1cc(-c2cccnc2)nc2ccc(Br)cc12`
[out] 0.29

---

# EXPERIMENT_DESCRIPTION: NOVARTIS: Cytotoxicity against human hepatocellular carcinoma cell line (Huh7)
# Assay type: toxicity, cell-based, Huh-7
# CONDITION_SUMMARY: Huh7 cells (hepatocellular carcinoma cell line)
REPORTED_PROPERTY: CC50

Known CC50 results, listed for orientation:
COC(=O)C1=C(C)N/C(=C\c2cc(C)n(-c3ccccc3C(F)(F)F)c2C)C1=O	> 10 µM
CC(=O)Nc1ccc2c(c1)C(=O)N(C(C(=O)NCC(=O)O)C1CC1)[C@@H](CCC(=O)O)C(=O)N2 (stereo partly drawn)	> 10 µM
O=[N+]([O-])c1ccc(-n2ncc(-c3nc(-c4ccc(Cl)cc4)no3)c2C(F)(F)F)cc1	> 10 µM
O=C1c2cccc(N3CCN(Cc4cccn4-c4nccs4)CC3)c2C(=O)N1Cc1ccc(Cl)cc1	> 100 µM
CCCCCCCc1ccc(-c2nnc(-c3ccc([N+](=O)[O-])cc3)o2)cc1	> 10 µM
COc1cc(NC(C)CCCN(Cc2ccc(OC)c(OC)c2)C(=O)c2ccc3ccccc3c2)c2ncccc2c1 (stereo not drawn)	5.33 µM

[in] # CC50 lookup, item `CCOC(=O)c1c(-c2ccccc2)oc2c1C(=O)c1ccccc1C2=O`
[out] > 100 µM

[in] Any idea what CC50 was measured for Cc1ccnc(NC(c2cccc(Cl)c2Cl)c2ccc3cccnc3c2O)c1 (stereo not drawn) ?
[out] > 49 µM

[in] # input compound: `CCc1c(C)c(C#N)c2nc3ccccc3n2c1NCc1ccccc1` ; wanted: its CC50
[out] > 100 µM

[in] Looking for the measured CC50 of COc1ccc(C2CC(=O)C3=C(C2)NC(C)=C(C(=O)OC(C)C)C3c2ccc(Cl)cc2Cl)cc1OC (stereo not drawn) , can you help?
[out] > 100 µM

[in] So what does the record say about CC50 for `Cc1cc(Nc2cccc(Cl)c2)nc(NCc2ccccc2)n1` ?
[out] 17.1 µM

[in] Quick one: CC50 for `CC(=O)CSc1nnc(-c2ccncc2)n1C` ?
[out] > 12.7 µM

[in] Request the reported CC50 associated with `Cc1ccc(-c2nn(CC(=O)Nc3ccc(OC(F)(F)F)cc3)c(=O)c3ccccc23)cc1S(=O)(=O)N1CCCCC1`
[out] > 10 µM

---

# EXPERIMENT_DESCRIPTION: NOVARTIS: Cytotoxicity against human hepatocellular carcinoma cell line (Huh7)
# Assay type: toxicity, cell-based, Huh-7
# CONDITION_SUMMARY: Huh7 cells (hepatocellular carcinoma cell line)
The entries below come with measured CC50 values attached.

c1ccc(-c2ccc(-c3ccccn3)nc2)nc1	0.36 µM
CCCSc1nc(N)c2c3c(sc2n1)CN(CCC)CC3	> 100 µM
CCOC(=O)C1=C(C)NC2=C(C(=O)CC(C)(C)C2)C1c1ccccn1 (stereo not given)	> 100 µM
O=C(Nc1ccc(-c2nc3cc(NC(=O)c4ccc(Cl)cc4)ccc3[nH]2)cc1)c1ccc(Cl)cc1	83.8 µM
c1cncc(-c2cc(NCCCn3ccnc3)nc(-c3ccncc3)n2)c1	> 10 µM
Cc1ccc(C(OCC(C)(C)C[N+](C)(C)C)c2ccccc2)cc1 (stereo not given)	23.3 µM
OC(COc1ccc(OCC(O)CN2CCN(C3c4ccccc4-c4ccccc43)CC2)cc1)CN1CCN(C2c3ccccc3-c3ccccc32)CC1 (stereo not given)	> 100 µM
Cc1ccc(-n2c(-c3ccccc3)cc(C=NNC(=O)c3cccc(O)c3)c2-c2ccccc2)cc1	> 100 µM

[in] Which measured CC50 value corresponds to `COC(=O)[C@@H]1C[C@@H](NC(=O)c2ccc(OC)cc2OC)CN1Cc1cc(C)ccc1C` ?
[out] > 100 µM

[in] Sample `Cc1c(CN2CCC(N3CCC(C(=O)NC4CC4)CC3)CC2)[nH]c2c(Cl)cccc12` — what was its CC50?
[out] 56.5 µM

[in] Query (compound): `OCCNCCNCc1ccc2[nH]c3ccccc3c2c1` ; field requested: CC50
[out] 28.9 µM

[in] Entry under review: O=C(NCc1ccco1)C1CCCN(c2cccc3c2C(=O)N(CCc2cccc(F)c2)C3=O)C1 (stereo not given) . Reported CC50?
[out] > 10 µM

[in] Which CC50 value belongs to CCOC(=O)C1=C(C)NC2=C(C(=O)CC(c3ccc(OC)c(OC)c3)C2)C1c1ccccc1Cl (stereo not given) ?
[out] > 100 µM

[in] # CC50 lookup, item COc1cccc(CCOc2ccc3c(c2)C(=O)N(C(C(=O)NC(C)(C)C)c2cccc(OC)c2)C(CO)C(=O)N3)c1 (stereo not given)
[out] > 9.1 µM

[in] Suppose we examine the compound `CCOc1ccc(-c2cn3c([n+]2Cc2ccccc2)SCCC3)cc1` ; what CC50 value has been reported?
[out] > 10 µM

---

In this section, each of the molecules is paired with its reported CC50.
# EXPERIMENT_DESCRIPTION: NOVARTIS: Cytotoxicity against human hepatocellular carcinoma cell line (Huh7)
# Type: toxicity, cell-based, Huh-7
# CONDITION_SUMMARY: Huh7 cells (hepatocellular carcinoma cell line)

Worked examples, 3 molecules total:
CCOC(=O)c1nnn(-c2nonc2N)c1-c1ccc(OC)cc1	> 100 µM
Cc1ccc(S(=O)(=O)N=C2C=C(Sc3nc4ccccc4[nH]3)C(=O)c3ccccc32)cc1	16.8 µM
Nc1ccc(-c2cc(N)n(-c3ccc(Oc4ccccc4)c(S(=O)(=O)O)c3)n2)cc1	> 10 µM

[in] Please look up its CC50: CCCCNC(=O)N1CCN(C(=O)C(Cc2c[nH]c3ccccc23)NC(=O)Nc2cccc(C#N)c2)CC1C (stereo not given)
[out] > 100 µM

[in] Name the reported CC50 value associated with the molecule `OP1(O)=NP(O)(O)=NP(O)(O)=NP(O)(O)=N1`
[out] > 10 µM

---

Parameter CC50: see the listing below.
# EXPERIMENT_DESCRIPTION: NOVARTIS: Cytotoxicity against human hepatocellular carcinoma cell line (Huh7)
# Type: toxicity, cell-based, Huh-7
# CONDITION_SUMMARY: Huh7 cells (hepatocellular carcinoma cell line)

In the examples that follow, each entry is paired with its recorded CC50.
CCC(c1nc2ccccc2c(=O)n1-c1ccccc1OC)N(CCc1ccccc1)C(=O)c1ccc(F)cc1 (stereo unspecified)	> 7.25 µM
O=C(Nc1ccc(N2CCCCC2)cc1)N1CCc2nc[nH]c2C1	> 6.67 µM
COC1=C(Nc2cccc(C(F)(F)F)c2)C(=O)c2ccccc2C1=O	> 100 µM
N=C(N)c1ccc(OCCCOc2ccc(C(=N)N)cc2)cc1	> 6.25 µM
Cc1nc2c(-c3ccccc3)c(C)nn2c(C)c1CC(=O)NCc1ccccn1	> 100 µM
CCCCCCN(C(=O)CCc1ccccc1)C(CC)c1nc2ccccc2c(=O)n1-c1ccc(Cl)cc1 (stereo unspecified)	> 10 µM
CCC1CCCCN1C(=O)C1CC(=O)N(c2ccc(OC)cc2)C1c1ccc(OC)cc1 (stereo unspecified)	> 100 µM
CC1CCCCN1CCCNc1ncc(C(=O)NCc2ccccc2)c(NCC2CCCCC2)n1 (stereo unspecified)	> 10 µM

[in] May I ask what CC50 has been recorded for `O=C(Nc1ccc2oc(-c3cccc4ccccc34)nc2c1)c1ccc([N+](=O)[O-])o1` ?
[out] > 100 µM

[in] What does the record list as CC50 for `CC(C)CC1=Nc2cc(C(=O)NCc3ccccc3)ccc2CN1Cc1cccnc1` ?
[out] > 10 µM

[in] What value of CC50 has been recorded for this entry: `CN1c2ccccc2N(C)C1c1ccco1`
[out] > 10 µM

[in] For the molecule Cn1c(=O)c2c(ncn2CC(O)CN=C2CCCCN2)n(C)c1=O (stereo unspecified) , what CC50 is on record?
[out] > 10 µM

[in] Which CC50 is reported for this molecule? CCC(C(=O)N1CCN(Cc2ccccc2)CC1)c1ccccc1 (stereo unspecified)
[out] > 100 µM

[in] Reported CC50 for `CCC(=O)N1CCN(C(=O)c2ccc(C)cc2)C1` : what is it?
[out] > 10 µM

[in] # input molecule: `CC(C)(C)CC(C)(C)Nc1c(-c2ccccc2OC(=O)c2ccco2)nc2ccccn12` ; wanted: its CC50
[out] > 100 µM

[in] Please look up its CC50: `COc1cc(NC(=O)Cn2ccc3ccc([N+](=O)[O-])cc32)cc(OC)c1OC`
[out] > 10 µM

[in] // CC50 lookup, key: O=[N+]([O-])c1cc(NC2OC(CO)C(OC3OC(CO)C(O)C(O)C3O)C(O)C2O)ccc1Cl (stereo unspecified)
[out] > 10 µM

[in] Given the molecule `C=C[C@H]1CN2CC[C@H]1C[C@@H]2[C@@H](O)c1ccnc2ccc(OC)cc12` , what is its reported CC50?
[out] 50.8 µM

[in] Which value of CC50 has been reported for CCOC(=O)C1CCCN(C(=O)c2c(C)oc3c2C(=O)c2ccccc2C3=O)C1 (stereo unspecified) in the records?
[out] 20.4 µM

[in] Entry CCCN1CCC(NC2CCCc3c2[nH]c2ccc([N+](=O)[O-])cc32)CC1 (stereo unspecified) has what CC50?
[out] 28 µM

[in] Tell me the measured CC50 of CCN(CC)c1ccc2c(c1)OC(N)=C(C#N)C2c1ccsc1 (stereo unspecified) , please.
[out] > 100 µM
